For each record, write down the corresponding pIC50.
target: NR1A/NR2B NMDA receptor (Rattus norvegicus, UniProt P35439+Q00960); test: Electrophysiological assay at NMDA receptor subunits expressed in Xenopus oocytes; settings: cloned rat NR1A/NR2B in Xenopus oocytes, two-electrode voltage clamp, glutamate 100 μM + glycine 1-100 μM; read-out: NR1A/NR2B Oocyte IC50
Sequence (Q00960 27-1482, other chains not shown): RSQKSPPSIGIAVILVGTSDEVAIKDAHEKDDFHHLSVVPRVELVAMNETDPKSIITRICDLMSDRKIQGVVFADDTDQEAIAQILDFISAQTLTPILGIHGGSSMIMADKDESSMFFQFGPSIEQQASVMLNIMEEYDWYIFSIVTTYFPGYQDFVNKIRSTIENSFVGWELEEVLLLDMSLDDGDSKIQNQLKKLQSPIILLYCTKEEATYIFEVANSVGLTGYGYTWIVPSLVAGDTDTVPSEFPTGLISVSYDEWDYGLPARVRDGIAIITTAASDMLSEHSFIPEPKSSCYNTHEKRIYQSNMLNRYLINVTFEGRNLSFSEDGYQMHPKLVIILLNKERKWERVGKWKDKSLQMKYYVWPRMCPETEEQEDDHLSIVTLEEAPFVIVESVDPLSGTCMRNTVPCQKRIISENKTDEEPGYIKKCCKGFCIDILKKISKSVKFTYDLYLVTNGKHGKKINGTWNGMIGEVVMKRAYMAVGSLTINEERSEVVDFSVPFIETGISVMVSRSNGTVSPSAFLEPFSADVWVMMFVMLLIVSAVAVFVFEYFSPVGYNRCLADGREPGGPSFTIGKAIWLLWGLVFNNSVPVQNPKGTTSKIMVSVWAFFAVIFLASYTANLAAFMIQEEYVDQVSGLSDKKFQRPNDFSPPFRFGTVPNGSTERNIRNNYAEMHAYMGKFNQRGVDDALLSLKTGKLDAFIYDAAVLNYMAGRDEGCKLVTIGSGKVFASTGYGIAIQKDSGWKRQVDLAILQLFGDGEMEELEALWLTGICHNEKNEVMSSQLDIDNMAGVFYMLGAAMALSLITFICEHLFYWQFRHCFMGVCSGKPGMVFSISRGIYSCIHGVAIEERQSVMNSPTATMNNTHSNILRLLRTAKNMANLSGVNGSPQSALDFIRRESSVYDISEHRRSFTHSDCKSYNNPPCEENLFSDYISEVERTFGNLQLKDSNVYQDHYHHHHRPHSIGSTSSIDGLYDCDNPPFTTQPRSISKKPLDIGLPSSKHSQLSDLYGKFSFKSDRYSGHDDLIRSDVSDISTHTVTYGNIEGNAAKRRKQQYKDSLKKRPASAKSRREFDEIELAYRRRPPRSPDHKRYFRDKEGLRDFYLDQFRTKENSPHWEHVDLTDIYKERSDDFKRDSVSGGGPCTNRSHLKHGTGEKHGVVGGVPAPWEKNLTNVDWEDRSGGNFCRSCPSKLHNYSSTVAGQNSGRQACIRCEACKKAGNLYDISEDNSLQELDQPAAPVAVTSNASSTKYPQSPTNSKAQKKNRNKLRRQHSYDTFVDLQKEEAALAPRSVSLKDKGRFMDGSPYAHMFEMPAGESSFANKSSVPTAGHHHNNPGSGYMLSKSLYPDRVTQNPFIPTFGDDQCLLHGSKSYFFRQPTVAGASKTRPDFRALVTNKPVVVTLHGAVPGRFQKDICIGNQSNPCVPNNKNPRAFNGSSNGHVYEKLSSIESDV
Give bare numbers, as −log10 of the molar value.

Please supply pIC50 for each of the following items, keeping them in order.
1. O=c1[nH]c2ccc([C@H]3CC[C@H](NCCS(=O)(=O)c4ccccc4)CC3)cc2o1
2. COc1ccc([C@H](O)[C@H](C)N[C@H]2CC[C@H](c3ccc4[nH]c(=O)oc4c3)CC2)cc1 [Example 11a]
3. O=c1[nH]c2ccc([C@H]3CC[C@H](NCCOc4ccc(F)cc4)CC3)cc2o1
4. C[C@@H](CCc1ccccc1)N[C@H]1CC[C@H](c2ccc3[nH]c(=O)oc3c2)CC1
5. O=c1[nH]c2ccc([C@H]3CC[C@H](NCCSc4ccc(F)cc4)CC3)cc2o1

1. 5.60
2. 4.26
3. 7.00
4. 6.96
5. 7.70

Please supply pIC50 for each of the following items, keeping them in order.
1. O=c1[nH]c2ccc([C@H]3CC[C@H](NCCCc4ccc(F)cc4)CC3)cc2o1
2. O=c1[nH]c2ccc([C@H]3CC[C@H](NCCSc4ccccc4)CC3)cc2o1

7.70
7.70

Please supply pIC50 for each of the following items, keeping them in order.
1. O=c1[nH]c2ccc([C@H]3CC[C@H](NCC[S+]([O-])c4ccccc4)CC3)cc2o1 (stereo partly shown)
2. COc1ccc([C@H](O)[C@H](C)N[C@H]2CC[C@@H](c3ccc4[nH]c(=O)oc4c3)CC2)cc1 [Example 11b]
3. O=c1[nH]c2ccc([C@H]3CC[C@H](NCCNc4ccccc4)CC3)cc2o1

1. 6.34
2. 5.00
3. 7.05
